Source: the supplement of paper PMC8882468

This listing pairs compounds with measured CTG-3D luminescence at 96 h.
tested on: HCI-001 (organoid from a triple-negative breast cancer xenograft); test: CTG-3D luminescence at 96 h relative to day-0 seeding control (ratio to day 0); higher = more growth / less cytotoxicity; PDxO 3D drug screen, 96 h, CTG-3D normalised to day-0 seeding control.; conditions: 100 µM; days in culture: 346

Please review the entries below; each comes with its answer.
Compound	Measured Result
C[C@]12CC[C@@H]3c4ccc(O)cc4C[C@@H](CCCCCCCCC[S+]([O-])CCCC(F)(F)C(F)(F)F)[C@H]3[C@@H]1CC[C@@H]2O (some centres undefined) [fulvestrant]	1.38
O=C(/C=C/c1cccnc1)NCCCCC1CCN(C(=O)c2ccccc2)CC1 [FK866]	0.128
CN(Cc1cnc2nc(N)nc(N)c2n1)c1ccc(C(=O)N[C@@H](CCC(=O)O)C(=O)O)cc1 [methotrexate]	1.19

Lab note: next compound to report on.
Would you kindly share the measured CTG-3D luminescence at 96 h for CNC(=O)c1cccc(-c2ccc3c(N4CCOC[C@@H]4C)nc(N4CCOC[C@@H]4C)nc3n2)c1 [vistusertib] ?
0.566
